test target: AChE (Electrophorus electricus)
Sequence (O42275 24-633): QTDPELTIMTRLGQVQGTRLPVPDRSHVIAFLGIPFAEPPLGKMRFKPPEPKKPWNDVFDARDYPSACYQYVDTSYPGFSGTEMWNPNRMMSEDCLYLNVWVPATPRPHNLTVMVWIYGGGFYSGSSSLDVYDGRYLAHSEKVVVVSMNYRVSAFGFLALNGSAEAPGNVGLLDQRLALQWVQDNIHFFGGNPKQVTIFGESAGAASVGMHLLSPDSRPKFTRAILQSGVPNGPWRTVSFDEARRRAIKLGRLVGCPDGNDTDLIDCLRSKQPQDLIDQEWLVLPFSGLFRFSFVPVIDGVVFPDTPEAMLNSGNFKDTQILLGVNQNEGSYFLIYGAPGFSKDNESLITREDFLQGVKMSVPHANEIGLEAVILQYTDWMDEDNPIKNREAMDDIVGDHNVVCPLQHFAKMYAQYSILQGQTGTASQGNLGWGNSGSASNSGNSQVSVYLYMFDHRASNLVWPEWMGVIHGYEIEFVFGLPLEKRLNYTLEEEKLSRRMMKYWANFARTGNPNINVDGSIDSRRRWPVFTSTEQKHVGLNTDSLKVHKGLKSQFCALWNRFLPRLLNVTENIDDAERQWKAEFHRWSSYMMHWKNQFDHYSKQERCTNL
reported metric: pKi
Schema: pKi number; meaning minus log10 of the concentration expressed in molar units.

# input molecule: "CC1=CC(/C=C/c2ccc(OCCCc3ccncc3)cc2)=[N+]2C1=C(c1ccc(OCCCc3ccncc3)cc1)c1c(C)cc(/C=C/c3ccc(OCCCc4ccncc4)cc3)n1[B-]2(F)F" ; wanted: its pKi 4.24

* * *

test target: butyrylcholinesterase from equine serum (BuChE) (Equus caballus, UniProt P81908)
Construct: butyrylcholinesterase from equine serum (BuChE)
Sequence (P81908 whole entry): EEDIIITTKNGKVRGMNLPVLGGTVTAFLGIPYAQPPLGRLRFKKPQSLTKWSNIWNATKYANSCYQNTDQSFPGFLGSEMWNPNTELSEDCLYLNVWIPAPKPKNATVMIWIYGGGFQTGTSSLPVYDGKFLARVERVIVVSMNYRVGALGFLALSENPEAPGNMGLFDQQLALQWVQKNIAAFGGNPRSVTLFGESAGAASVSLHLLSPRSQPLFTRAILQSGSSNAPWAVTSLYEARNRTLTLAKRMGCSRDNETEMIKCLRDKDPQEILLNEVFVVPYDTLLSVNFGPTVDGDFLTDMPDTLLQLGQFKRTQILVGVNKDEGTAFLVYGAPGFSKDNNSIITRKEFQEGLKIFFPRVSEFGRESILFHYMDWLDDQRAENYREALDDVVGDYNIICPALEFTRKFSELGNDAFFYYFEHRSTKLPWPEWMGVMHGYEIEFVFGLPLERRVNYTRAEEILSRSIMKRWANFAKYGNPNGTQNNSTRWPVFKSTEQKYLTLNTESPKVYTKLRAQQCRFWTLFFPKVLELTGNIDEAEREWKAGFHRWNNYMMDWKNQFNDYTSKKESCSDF
method description: BuChE inhibition
From the text: The materials, equipment, AChE, BuChE, α-glucosidase inhibitory, and DNA hydrolytic cleavage actions are given as supplementary information. The results were expressed as IC50 and selective index (SI=BuChE/AChE) values.
Would you kindly list pIC50 for each of these compounds?
Recall that pIC50 is obtained by taking minus log10 of the concentration measured in molar.

Recorded pIC50 for "CC1=CC(/C=C/c2ccc(OCCCc3cccnc3)cc2)=[N+]2C1=C(c1ccc(OCCCc3ccncc3)cc1)c1c(C)cc(/C=C/c3ccc(OCCCc4cccnc4)cc3)n1[B-]2(F)F" , please? 3.77

Moving on to "CC1=CC(C)=[N+]2C1=C(c1ccc(OCCCc3ccncc3)cc1)c1c(C)cc(C)n1[B-]2(F)F" 3.73

And "CC1=CC(/C=C/c2ccc(OCCCc3ccncc3)cc2)=[N+]2C1=C(c1ccc(OCCCc3ccncc3)cc1)c1c(C)cc(/C=C/c3ccc(OCCCc4ccncc4)cc3)n1[B-]2(F)F" ? 3.82
